This listing pairs compounds with measured melting point.

- structure: "COc1ccnc(C(=O)N[C@H]2COC[C@H](OCC3CC3)[C@@H](Cc3ccccc3)[C@H](C)OC2=O)c1OC(C)=O"
  melting point: "54 to 59 °C"
- structure: "CC(C)CC[C@H]1[C@H](C)OC(=O)[C@@H](NC(=O)OC(C)(C)C)COC[C@@H]1OCc1ccccc1"
  melting point: "70 to 72 °C"
- structure: "COc1ccnc(C(=O)N[C@H]2COC[C@H](OC(=O)C3CC3)[C@@H](CCC(C)C)[C@H](C)OC2=O)c1OCOC(C)=O"
  melting point: "45 to 50 °C"
- structure: "COc1ccnc(C(=O)N[C@H]2COC[C@H](Oc3ccccc3)[C@@H](CCC(C)C)[C@H](C)OC2=O)c1O"
  melting point: "58 to 62 °C"
- structure: "COc1ccnc(C(=O)N[C@H]2COC[C@H](Oc3ccccc3)[C@@H](CCC(C)C)[C@H](C)OC2=O)c1OCOC(C)=O"
  melting point: "44 to 50 °C"
- structure: "CC(C)CC[C@H]1[C@H](C)OC(=O)[C@@H](NC(=O)OC(C)(C)C)COC[C@@H]1OC(=O)C1CC1"
  melting point: "92 to 95 °C"
- structure: "CCCO[C@H]1COC[C@H](NC(=O)OC(C)(C)C)C(=O)O[C@@H](C)[C@@H]1CCC(C)C"
  melting point: "74 to 77 °C"
- structure: "COc1ccnc(C(=O)N[C@H]2COC[C@H](OCc3ccccc3)[C@@H](CCC(C)C)[C@H](C)OC2=O)c1OC(C)=O"
  melting point: "55 to 61 °C"
- structure: "CCCO[C@H]1COC[C@H](NC(=O)c2nccc(OC)c2O)C(=O)O[C@@H](C)[C@@H]1CCC(C)C"
  melting point: "54 to 57 °C"
- structure: "COc1ccnc(C(=O)N[C@H]2COC[C@H](Oc3ccccc3)[C@@H](Cc3ccccc3)[C@H](C)OC2=O)c1O"
  melting point: "49 to 54 °C"

Any idea what melting point was measured for COc1ccnc(C(=O)N[C@H]2COC[C@H](OCC(C)C)[C@@H](Cc3ccccc3)[C@H](C)OC2=O)c1OC(C)=O ?
52 to 57 °C

Any idea what melting point was measured for CC(C)CC[C@H]1[C@H](C)OC(=O)[C@@H](NC(=O)OC(C)(C)C)COC[C@@H]1O ?
112 to 115 °C

Any idea what melting point was measured for COc1ccnc(C(=O)N[C@H]2COC[C@H](OCc3ccccc3)[C@@H](CCC(C)C)[C@H](C)OC2=O)c1O ?
104 to 106 °C

* * *

tested on: Septoria tritici; experiment: Leaf blotch of wheat (SEPTTR) disease control on wheat seedlings; assay type: in vivo, Mycosphaerella graminicola (anamorph Septoria tritici); conditions: Zymoseptoria tritici, 72 h, 3DC (3 Day Curative), 100 ppm, high volume application, read-out: SEPTTR disease control rating (% Control)
parameter: pest or weed control at 100 ppm

# count of solved cases: 5
- structure: "CCOCC(=O)OCOc1c(OC)ccnc1C(=O)N[C@H]1COC[C@H](OCOCc2ccccc2)[C@@H](Cc2ccccc2)[C@H](C)OC1=O"
  pest or weed control at 100 ppm: "> 70%"
- structure: "COc1ccnc(C(=O)N[C@H]2COC[C@H](Oc3ccc(C)cc3)[C@@H](Cc3ccc(F)cc3)[C@H](C)OC2=O)c1O"
  pest or weed control at 100 ppm: "< 70%"
- structure: "COc1ccnc(C(=O)N[C@H]2COC[C@H](OCC3CC3)[C@@H](Cc3ccccc3)[C@H](C)OC2=O)c1OCOC(C)=O"
  pest or weed control at 100 ppm: "> 70%"
- structure: "COc1ccnc(C(=O)N[C@H]2COC[C@H](OCOCc3ccccc3)[C@@H](Cc3ccccc3)[C@H](C)OC2=O)c1O"
  pest or weed control at 100 ppm: "< 70%"
- structure: "COc1ccnc(C(=O)N[C@H]2COC[C@H](OCC3CC3)[C@@H](Cc3ccccc3)[C@H](C)OC2=O)c1O"
  pest or weed control at 100 ppm: "> 70%"

Any idea what pest or weed control at 100 ppm was measured for COc1ccnc(C(=O)N[C@H]2COC[C@H](OCC3CC3)[C@@H](Cc3ccc(F)cc3)[C@H](C)OC2=O)c1O ?
> 70%
